// reported ratio OD on target/OD bdf per item
Biological target: T1, recombinant murine MOG protein (murine, UniProt Q61885 29-156, limits assumed)
T1 construct: Bought recombinant protein; also called MMOG
T1 sequence (looked up): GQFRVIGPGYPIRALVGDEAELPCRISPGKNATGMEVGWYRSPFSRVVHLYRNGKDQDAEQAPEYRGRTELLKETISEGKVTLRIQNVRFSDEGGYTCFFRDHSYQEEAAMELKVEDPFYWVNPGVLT
Assay: phage-scFv ELISA on coated recombinant murine MOG (0.5 µg/well), anti-M13 HRP, OD450 over BSA background
quantity measured: ratio OD on target/OD bdf (ratio)

- binder: "anti-MOG MO3B-03 antibody (scFv, V domains shown, T0004 labels followed) VH: QVQLQQSGPGLVRPSQTLSLTCAISGDSVSSSSAAWNWVRSPSRGLEWLGRTYYRSKWYYDYAVSVKNRIAINPDTSKNQFSLHLNSVTPEDTAVYYCATGWLRGHLDYWGQGTLVTVSS VL: AIQMTQSPSSVSASVGDRVTITCRATQSISTYLNWYQQKVGRGPKLLVYAASRLQTGVPSRFSGSGSGTDFTLTISSLQPEDSATYYCQQSYSAPPAFGGGTKVEIK"
  quantity measured: "ratio OD on target/OD bdf"
  quantity unit: "ratio"
  test result: 5.55
- binder: "anti-MOG MO3J-44 antibody (scFv, V domains shown) VH: QVQLVQSGAEVRKPGASVKISCQISGYNFISYTIQWVRQAPGQRPEWMGWINSGNGNTKYSQKFQGRVTFTRDTSTSTAYMELSSLRSEDTAVYYCARSGIGPWGQGTLVTVSS VL: EIVLTQPPDLQSVTPKKKVTITCRASQSIGNSLHWCQQKPDQSPKLLIKYASQSISGVPSRFSGSGSGTDFTLTINSLEAEDAATYYCHQSSSLPFTFGPGTKVDIK"
  quantity measured: "ratio OD on target/OD bdf"
  quantity unit: "ratio"
  test result: 6.61
- binder: "anti-MOG MO3J-52 antibody (scFv, V domains shown) VH: QMQLVQSGAEVKKPGSSVKVSCKASGGTFSSYAISWVRQAPGQGLEWMGGIIPIFGTANYAQKFQGRVTITADESTSTAYMELSSLRSEDTAVYYCARAREGLLVNYYGMDVWGQGTLVTVSS VL: DIQMTQSPSTLSASVGDRVTTTCRASQGISNYLAWFQQKPGKAPKSLIYAASSLQSGVPSRFSGGGSGTDFTLTINSLQPEDFATYYCLHDYNYPTFGQGTKVEIK"
  quantity measured: "ratio OD on target/OD bdf"
  quantity unit: "ratio"
  test result: 6.86
- binder: "anti-MOG MO3I-34 antibody (scFv, V domains shown) VH: EVQLVQSGAEVKKPGASVKVSCKASGYTFTSYGISWVRQAPGQGLEWMGWISAYNGNTNYAQKLQGRVTMTTDTSTSTAYMELRSLRSDDTAVYYCARNMGCSSTSCFVSWFDPWGQGTLVTVSS VL: QSVLTQPPSVSAAPGQKVTISCSGSRSNIGSNYVSWYQQLPGTAPKLLIYDNTRRPSGIPDRFYGSKSGTSATLDITGLQTGDEADYHCATWDSSLSALLFGGGTKVTVL"
  quantity measured: "ratio OD on target/OD bdf"
  quantity unit: "ratio"
  test result: 2.45
- binder: "anti-MOG MO3I-60 antibody (scFv, V domains shown) VH: EVQLVESGGGLVKPGGSLGLSCAASGFTFTNAWGHWVRQAPGKGLEWVGRIKSKTDGGTTDYAAPVKDRFSISRDDSKNTLYLQMNSPTTEDTAVYYCATENGMDIVTTFDSWGQGTLVTVSS VL: AIRMTQSPSSLSASVGDRVTITCRASQSIGSYLSWYRQKPGKAPKLLIYDSSTLQSGVASRFSGSGSGTDFTLTISALQPEDFATYYCHQSYRTPLSFGGGTKVEIK"
  quantity measured: "ratio OD on target/OD bdf"
  quantity unit: "ratio"
  test result: 2.75
